assay: Aqueous solubility of the compound; type: physicochemical; settings: aqueous medium (not specified further)
parameter_measured: solubility (µM)
Express it in µM; write the number only.

Use these answered entries as a reference point.
Cc1ccc(NC(=O)c2ccccc2NC(=O)c2ccc(C(C)(C)C)cc2)cc1C(=O)O ... 4.9
O=C(O)Cc1cccc(NC(=O)c2ccccc2NC(=O)c2ccc(-c3ccccc3)cc2)c1 ... 1.7
O=C(O)Cc1cccc(NC(=O)c2ccccc2NC(=O)c2ccc3ccccc3c2)c1 ... 6

# input for lookup
Qu. If you can, please state the reported solubility value of Cc1ccc(C(=O)O)cc1NC(=O)c1ccccc1NC(=O)c1ccc(C(C)(C)C)cc1 .
Ans. 2.6
